# target_or_system: PDZRN4_1, Q6ZMN7
# Sequence (Q6ZMN7 213-318): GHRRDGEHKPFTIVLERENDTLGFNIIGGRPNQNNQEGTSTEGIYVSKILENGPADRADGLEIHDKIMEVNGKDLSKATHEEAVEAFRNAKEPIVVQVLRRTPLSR
# assay_info: holdup assay
# Parameters: key: below the threshold = too weak to quantify, mostly under pKd 3.1 to 4
# condition_info: plain residues with an end cap or a label only (N-terminal biotin on a linker: ado-ado)
observable: pKd

These recorded examples may help you get a feel for the data.
VYEVPVETKF [SLC26A3, P40879] ... below the threshold
EKPIDSETKM [SLC1A3, P43003] ... below the threshold
PALKNGQYWV [CSPG4, Q6UVK1] ... below the threshold
EPAKETTTNV [SLC2A3, P11169] ... below the threshold
VKQYADVEGF [HNRNPK, P61978;P61978-2] ... below the threshold

Lookup result for FLVTEFNVML [DFNB31, Q9P202] ; measured pKd: below the threshold

Lookup result for SGDGKTSVWI [GJC1, P36383] ; measured pKd: below the threshold

Lookup result for ADEMICITTL [CACNA1D, Q01668] ; measured pKd: 3.72

Lookup result for IKLETKKTKL [SLC15A2, Q16348] ; measured pKd: 3.56
